Test system: VEGF induced increases in intracellular calcium levels in HUVEC (human umbilical vein endothelial cells)
Test: VEGF Stimulated Ca++ signal assay (FLIPR)
Type: cell-based
Details: Homo sapiens, 10 μM, 30 min pre-incubation, VEGF 5 ng/mL
Procedure: VEGF Stimulated Ca^++ Signal in vitro Automated FLIPR (Fluorometric Imaging Plate Reader) technology was used to screen for inhibitors of VEGF induced increases in intracellular calcium levels in fluorescent dye loaded endothelial cells. […] Changes in fluorescence at 516 nm were measured simultaneously in all 96 wells using a cooled CCD camera. Data were generated by determining max-min fluorescence levels for unstimulated, stimulated, and drug treated samples. […]
value type: inhibition at 10 µM
# output: numeric value plus its unit

Consider the molecule shown here: Cc1oc(C(C)(C)C)cc1-c1cc(NC=C2C(=O)Nc3ccc(F)cc32)[nH]n1 [Example 28] What is its recorded inhibition at 10 µM? 43.9%

Look up inhibition at 10 µM for this molecule: O=C1Nc2ccccc2C1=CNc1n[nH]c2cccc(F)c12 [Example 15] 6.16%
